Molecular target: DENV2proHeLa NS2B-NS3 protease (Dengue virus 2 Thailand/16681/84)
Assay: cell-based

| COMPOUND | DISPLAY UNIT | EC50 |
| --- | --- | --- |
| NC(=O)c1cccc(NC(=O)[C@@H](NC(=O)c2ccc(Oc3ccccc3)nc2)c2ccc(OCc3ccccc3)cc2)c1 [compound 33] | µM | 8.8 |
| NC(=O)c1cccc(NC(=O)C(Cc2ccc3ccccc3c2)NC(=O)c2ccc(Oc3ccccc3)cc2)c1 (centres unmarked) [compound 65] | µM | 7.4 |
| NC(=O)c1cccc(NC(=O)C(Cc2ccc(OCc3ccc4ccccc4c3)cc2)NC(=O)c2ccc(Oc3ccccc3)cc2)c1 (centres unmarked) [compound 63] | µM | 5.1 |
| CC(CC(=O)N[C@H](C(=O)Nc1cccc(C(N)=O)c1)c1ccc(OCc2ccccc2)cc1)CC(C)(C)C (some centres unmarked) [compound 16] | µM | 11 |
| NC(=O)c1cccc(NC(=O)[C@@H](NC(=O)c2ccc(Nc3ccccc3)cc2)c2ccc(OCc3ccccc3)cc2)c1 [compound 7] | µM | 0.7 |

====

Each entry below carries its reported CC50.
Assay: in vitro
Set-up: species or system DENV2proHeLa (HeLa)
Conditions: human, denv2prohela cells

| COMPOUND | CC50 |
| --- | --- |
| NC(=O)c1cccc(NC(=O)C(CC2CCCCC2)NC(=O)c2ccc(Oc3ccccc3)cc2)c1 (stereo not drawn) | 40 µM |
| NC(=O)c1cccc(NC(=O)C(Cc2ccccc2)NC(=O)c2ccc(Oc3ccccc3)cc2)c1 (stereo not drawn) | > 50 µM |
| NC(=O)c1cccc(NC(=O)C(Cc2ccc(NCc3ccccc3)cc2)NC(=O)c2ccc(Oc3ccccc3)cc2)c1 (stereo not drawn) | > 50 µM |

====

Target: DENV2proHeLa NS2B-NS3 protease (Dengue virus 2 Thailand/16681/84, UniProt P29990)
Sequence (P29990 1476-2093 limits assumed): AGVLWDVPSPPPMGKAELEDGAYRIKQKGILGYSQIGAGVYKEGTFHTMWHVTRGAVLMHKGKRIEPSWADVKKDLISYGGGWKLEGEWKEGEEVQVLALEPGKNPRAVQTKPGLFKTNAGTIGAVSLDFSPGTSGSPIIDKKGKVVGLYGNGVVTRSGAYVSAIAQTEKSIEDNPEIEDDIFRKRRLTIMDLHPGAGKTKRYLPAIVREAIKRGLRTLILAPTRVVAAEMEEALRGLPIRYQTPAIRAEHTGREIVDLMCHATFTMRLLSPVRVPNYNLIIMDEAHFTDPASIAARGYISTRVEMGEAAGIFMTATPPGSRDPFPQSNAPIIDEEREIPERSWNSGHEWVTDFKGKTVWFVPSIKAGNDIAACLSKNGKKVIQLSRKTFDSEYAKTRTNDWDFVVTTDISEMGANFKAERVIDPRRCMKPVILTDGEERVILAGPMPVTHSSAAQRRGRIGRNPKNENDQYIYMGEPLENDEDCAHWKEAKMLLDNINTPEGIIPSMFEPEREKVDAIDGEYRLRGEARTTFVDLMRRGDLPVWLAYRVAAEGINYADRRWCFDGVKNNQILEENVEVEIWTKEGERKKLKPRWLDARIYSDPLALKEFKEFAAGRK
Sequence (P29990 1346-1475 partner limits assumed): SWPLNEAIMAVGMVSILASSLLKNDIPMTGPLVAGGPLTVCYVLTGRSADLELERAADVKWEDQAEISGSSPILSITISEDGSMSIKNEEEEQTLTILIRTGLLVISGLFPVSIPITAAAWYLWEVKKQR
Test: cell-based
Parameters: species or system DENV2proHeLa (HeLa)
Conditions: HeLa, read-out: % inhibition
RESULT TYPE: inhibition at 12.5 µM (%)

| COMPOUND | ASSAY RESULT |
| --- | --- |
| COc1ccc2cc([C@H](C)C(=O)N[C@H](C(=O)Nc3cccc(C(N)=O)c3)c3ccc(OCc4ccccc4)cc3)ccc2c1 | 71 |
| CC(C(=O)N[C@H](C(=O)Nc1cccc(C(N)=O)c1)c1ccc(OCc2ccccc2)cc1)c1cccc(Oc2ccccc2)c1 (stereo partly drawn) | 86 |
| NC(=O)c1cccc(NC(=O)[C@@H](NC(=O)c2ccc(Nc3ccccc3)cc2)c2ccc(OCc3ccccc3)cc2)c1 | 93 |

====

Target: NS2B(H)-NS3pro (DENV-2 NS2B-NS3 protease) (Dengue virus 2 Thailand/NGS-C/1944)
Sequence (P14340 1394-1433 limits assumed): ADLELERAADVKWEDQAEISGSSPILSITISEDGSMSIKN
Sequence (P14340 1476-1660 limits assumed): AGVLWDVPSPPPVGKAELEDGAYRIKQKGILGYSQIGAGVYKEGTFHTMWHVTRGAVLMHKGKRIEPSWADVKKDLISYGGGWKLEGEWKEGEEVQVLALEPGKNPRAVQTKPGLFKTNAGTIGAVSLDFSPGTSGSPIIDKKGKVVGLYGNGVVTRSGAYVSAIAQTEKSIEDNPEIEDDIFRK
Assay: biochemical
Conditions: read-out: % inhibition

| COMPOUND | inhibition at 50 µM (%) |
| --- | --- |
| NC(=O)c1cccc(NC(=O)C(NC(=O)c2ccccc2)c2ccc(OCc3ccccc3)cc2)c1 (stereo not drawn) | 56 |
| Cc1nc(-c2ccncc2)sc1C(=O)N[C@H](C(=O)Nc1cccc(C(N)=O)c1)c1ccc(OCc2ccccc2)cc1 | 69 |
| CC(C)CCC(=O)N1CCC(C(=O)N[C@H](C(=O)Nc2cccc(C(N)=O)c2)c2ccc(OCc3ccccc3)cc2)CC1 | 69 |
| NC(=O)c1cccc(NC(=O)[C@@H](NC(=O)c2ccc(Oc3ccccc3)nc2)c2ccc(OCc3ccccc3)cc2)c1 | 70 |
| Cc1onc(-c2ccc(F)cc2)c1C(=O)N[C@H](C(=O)Nc1cccc(C(N)=O)c1)c1ccc(OCc2ccccc2)cc1 | 82 |
| CC(C(=O)N[C@H](C(=O)Nc1cccc(C(N)=O)c1)c1ccc(OCc2ccccc2)cc1)c1ccccc1 (stereo partly drawn) | 83 |
